Origin of the recorded values: BigSolDB 2.1

- Measurement Parameters: in acetonitrile, 318.15 K
Readout Label: solubility (mole fraction)
Could you respond with only the numeric value?

Query: Output solubility (mole fraction) of COC(=O)C1=C(C)NC(C)=C(C(=O)OCC(C)C)C1c1ccccc1[N+](=O)[O-] (stereo unspecified)
Result: 0.0329

###

- Measurement Parameters: in n-propanol, 318.15 K
Readout Label: solubility (mole fraction)
Could you respond with only the numeric value?

Query: Output solubility (mole fraction) of COC(=O)C1=C(C)NC(C)=C(C(=O)OCC(C)C)C1c1ccccc1[N+](=O)[O-] (stereo unspecified)
Result: 0.0162

###

- Measurement Parameters: in n-propanol, 308.15 K
Readout Label: solubility (mole fraction)
Could you respond with only the numeric value?

Query: Output solubility (mole fraction) of COC(=O)C1=C(C)NC(C)=C(C(=O)OCC(C)C)C1c1ccccc1[N+](=O)[O-] (stereo unspecified)
Result: 0.0115
